# Measurement target: HLA-B*15:01
# Method notes: IEDB peptide-MHC binding, purified MHC/competitive/radioactivity; filed as Kd, often an IC50 or EC50 that approximates it; bounds were set here for any values at or beyond the usual limits of such assays
# Condition: source organism: Variola virus
Measured endpoint: pKd
A value of pKd is the negative decimal logarithm of a concentration given in moles per litre.

Please report the recorded pKd for `LLLSINSSF` .
9.05

----------
# Measurement target: HLA-B*39:01
# Method notes: IEDB peptide-MHC binding, purified MHC/competitive/fluorescence; filed as Kd, often an IC50 or EC50 that approximates it; bounds were set here for any values at or beyond the usual limits of such assays
# Condition: source organism: Vibrio antiquarius
Measured endpoint: Kd

Please report the recorded Kd for `SLTIPSFYT` .
≥ 20 µM

----------
# Measurement target: HLA-A*02:01
# Method notes: IEDB peptide-MHC binding, purified MHC/direct/fluorescence; filed as Kd, often an IC50 or EC50 that approximates it; bounds were set here for any values at or beyond the usual limits of such assays
# Condition: source organism: Camelpox virus M-96
pKd: −log10 of the molar value.
Measured endpoint: pKd

Please report the recorded pKd for `NSNINVINY` .
≤ 4.70

----------
# Measurement target: HLA-A*02:19
# Method notes: IEDB peptide-MHC binding, purified MHC/competitive/fluorescence; filed as Kd, often an IC50 or EC50 that approximates it; bounds were set here for any values at or beyond the usual limits of such assays
# Condition: source organism: Brucella melitensis bv. 1 str. 16M
Measured endpoint: Kd

Please report the recorded Kd for `AVGVVCTGL` .
≥ 20 µM

----------
# Measurement target: HLA-A*30:02
# Method notes: IEDB peptide-MHC binding, purified MHC/competitive/radioactivity; filed as Kd, often an IC50 or EC50 that approximates it; bounds were set here for any values at or beyond the usual limits of such assays
# Condition: source organism: Mammarenavirus lassaense
Measured endpoint: Kd (nM)
Expressed in nM, but write only the number.

Please report the recorded Kd for `AGFPAGLTY` .
287

----------
# Measurement target: HLA-B*07:02
# Method notes: IEDB peptide-MHC binding, purified MHC/competitive/radioactivity; filed as Kd, often an IC50 or EC50 that approximates it; bounds were set here for any values at or beyond the usual limits of such assays
# Condition: source organism: Vaccinia virus WR
Measured endpoint: Kd (nM)
Expressed in nM, but write only the number.

LPSLIKTILA :: 1520
ILMIFISSFL :: 16800
VPDIKLDAVL :: 4.94

Please report the recorded Kd for `KPEVRIPVDL` .
235

----------
# Measurement target: HLA-A*23:01
# Method notes: IEDB peptide-MHC binding, purified MHC/competitive/radioactivity; filed as Kd, often an IC50 or EC50 that approximates it; bounds were set here for any values at or beyond the usual limits of such assays
# Condition: source organism: Mammarenavirus whitewaterense
Measured endpoint: Kd
Answer with the value and then the unit.

AYTSSDDEI :: 1.58 µM

Now turn to the next sequence.
Please report the recorded Kd for `YQPESQKFI` .
7.21 µM

----------
# Measurement target: HLA-A*02:12
# Method notes: IEDB peptide-MHC binding, purified MHC/competitive/fluorescence; filed as Kd, often an IC50 or EC50 that approximates it; bounds were set here for any values at or beyond the usual limits of such assays
# Condition: source organism: Vibrio parahaemolyticus AQ3810
Measured endpoint: Kd

State its Kd on HLA-A*02:12: `SSRGYSAIW`
≥ 20 µM
